ASSAY COMMENT: protein stability index of a GFP-peptide fusion (GPS, HEK-293T) (PSI 1-6); higher = more stable;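 further: 24-mer peptide tiles fused after GFP, lentivirally expressed, FACS-sorted into six equal bins by GFP/DsRed ratio, decoded by Illumina sequencing, PSI is the read-weighted mean bin number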
RUN PARAMETERS: treatment: MLN4924 1 uM, 8 h; c terminus: a fixed tail appended

RECORD SEQUENCE | protein stability index
CYEHFAELDIPQSVQQNGSIYIHV [CLPTM1] | 2.98
FKSLDKKNDGRIDAQEIMQSLRDL [SLC25A25] | 3.92
EDSIPLRGLSQNLFSNSDHQRDGT [SASS6] | 4.99
DLSKPPCRKAKEIRKERKRLKLMQ [ATE1] | 3.64
SPYLGQMINLRRLLLSHIHASSYI [PRAME] | 2.47
HKSAFNDWFSGHLNFQIEHHLFPT [FADS1] | 2.07
KLWSFFIYLLRRQIRTVIQYQTVR [CTDNEP1] | 2.94
